Could you please report measured pKi for the items listed next?
biological target: WDR5 (Homo sapiens); construct: WDR5-His Tag (A23, residues 24-334) is expressed and purified in our lab; made in house; assay: Time Resolved-Fluorescence Energy Transfer (TR-FRET) competition assay, displacement of 10mer-Thr-FAM probe from His-tagged WDR5; format: binding; conditions: WDR5-His tag 2 nM, 10mer-Thr-FAM 150 nM, 60 minutes at room temperature; read-out: Ki for additional WDR5 inhibitor compounds for Inhibition of WDR5 by TR-FRET assay
Recall that pKi is obtained by taking minus log10 of the concentration measured in molar.

Exercise: Fill in the blank: the reported pKi of CCc1cc(C(=O)NCC2CCCC2)c2nccc(N3CCc4c(cc(Cn5ccnc5)cc4-c4cn(C)nc4C(F)(F)F)C3=O)c2c1 is ____.
Solution: 10.64

Exercise: COc1cc(C(=O)O)c2nccc(N3CCc4c(cc(Cn5ccnc5)cc4-c4cn(C)nc4C(F)(F)F)C3=O)c2c1 , same question.
Solution: 10.21

Exercise: CCc1cc(C(=O)NCc2ccncc2)c2nccc(N3CCc4c(cc(Cn5ccnc5)cc4-c4cn(C)nc4C(F)(F)F)C3=O)c2c1 , same question.
Solution: 10.62

Exercise: CCc1cc(C2CCN(C)CC2)c2nc(C)cc(N3CCc4c(cc(Cn5ccnc5)cc4-c4cn(C)nc4C(F)(F)F)C3=O)c2c1 , same question.
Solution: 10.55

Exercise: COc1cc(C(=O)N2CCOCC2)c2nccc(N3CCc4c(cc(Cn5ccnc5)cc4-c4cn(C)nc4C(F)(F)F)C3=O)c2c1 , same question.
Solution: 10.42

Exercise: COc1cc(N2C[C@H]3CN(C)C[C@H]3C2)c2nc(C)cc(N3CCc4c(cc(Cn5ccnc5)cc4-c4cn(C)nc4C(F)(F)F)C3=O)c2c1 , same question.
Solution: 10.70

Exercise: CCc1cc(C(=O)NC)c2nccc(N3CCc4c(cc(Cn5ccnc5)cc4-c4cccnc4C(F)(F)F)C3=O)c2c1 , same question.
Solution: 10.46

Exercise: CCc1cc(C(=O)NCCN(C)C)c2nccc(N3CCc4c(cc(Cn5ccnc5)cc4-c4cn(C)nc4C(F)(F)F)C3=O)c2c1 , same question.
Solution: 10.54

Exercise: CCc1cc(C2CCOCC2)c2nc(C)cc(N3CCc4c(cc(Cn5ccnc5)cc4-c4cn(C)nc4C(F)(F)F)C3=O)c2c1 , same question.
Solution: 10.38

----------
Could you please report measured pKi for the items listed next?
molecular target: WDR5 (Homo sapiens, UniProt P61964); construct: WDR5-His Tag (A23, residues 24-334) is expressed and purified in our lab; made in house; test: Time Resolved-Fluorescence Energy Transfer (TR-FRET) competition assay, displacement of 10mer-Thr-FAM probe from His-tagged WDR5; type: binding; settings: WDR5-His tag 2 nM, 10mer-Thr-FAM 150 nM, 60 minutes at room temperature; read-out: Ki for Exemplified Compounds for Inhibition of WDR5 by TR-FRET assay
Recall that pKi is obtained by taking minus log10 of the concentration measured in molar.

Exercise: Which measured pKi belongs to COc1cc2nc(C)nc(N3CCc4c(cc(Cn5ccnc5)cc4-c4cn(C)nc4C)C3=O)c2cc1OC , tested on WDR5 (Homo sapiens, UniProt P61964)?
Solution: 10.64

Exercise: COc1cc2nc(C3CCOCC3)nc(N3CCc4c(cc(Cn5ccnc5)cc4-c4cn(C)nc4C(F)(F)F)C3=O)c2cc1OC , same question.
Solution: 10.60

----------
target: WDR5 (Homo sapiens, UniProt P61964); construct: WDR5-His Tag (A23, residues 24-334) is expressed and purified in our lab; made in house; test: Time Resolved-Fluorescence Energy Transfer (TR-FRET) competition assay, displacement of 10mer-Thr-FAM probe from His-tagged WDR5; type: binding; details: WDR5-His tag 2 nM, 10mer-Thr-FAM 150 nM, 60 minutes at room temperature; read-out: Ki for additional WDR5 inhibitor compounds for Inhibition of WDR5 by TR-FRET assay
Could you please report measured pKi for the items listed next?
Recall that pKi is obtained by taking minus log10 of the concentration measured in molar.

Exercise: Fill in the blank: the reported pKi of COc1cc(C(=O)NC(C)C)c2nccc(N3CCc4c(cc(Cn5ccnc5)cc4-c4cn(C)nc4C(F)(F)F)C3=O)c2c1 is ____.
Solution: 10.66

Exercise: CCc1cc(N2CCOCC2)c2nc(C)cc(N3CCc4c(cc(Cn5ccnc5)cc4-c4cn(C)nc4C(F)(F)F)C3=O)c2c1 , same question.
Solution: 10.70

Exercise: CCc1cc(N2CCN(C3COC3)C(=O)C2)c2nc(C)cc(N3CCc4c(cc(Cn5ccnc5)cc4-c4cn(C)nc4C(F)(F)F)C3=O)c2c1 , same question.
Solution: 10.52

Exercise: CCc1cc(OC)c2nccc(N3CCc4c(cc(Cn5ccnc5)cc4-c4cccnc4C(F)(F)F)C3=O)c2c1 , same question.
Solution: 10.55

----------
target: WDR5 (Homo sapiens, UniProt P61964); construct: WDR5-His Tag (A23, residues 24-334) is expressed and purified in our lab; made in house; assay: Time Resolved-Fluorescence Energy Transfer (TR-FRET) competition assay, displacement of 10mer-Thr-FAM probe from His-tagged WDR5; assay type: binding; details: WDR5-His tag 2 nM, 10mer-Thr-FAM 150 nM, 60 minutes at room temperature; read-out: Ki for additional WDR5 inhibitor compounds for Inhibition of WDR5 by TR-FRET assay
Could you please report measured pKi for the items listed next?
Recall that pKi is obtained by taking minus log10 of the concentration measured in molar.

Exercise: Fill in the blank: the reported pKi of COc1cc(N2CCN(C(C)=O)CC2)c2nccc(N3CCc4c(cc(Cn5ccnc5)cc4-c4cn(C)nc4C(F)(F)F)C3=O)c2c1 [Compound B-32] is ____.
Solution: 10.60

Exercise: COc1cc(C2=CCN(C)CC2)c2nc(C)cc(N3CCc4c(cc(Cn5ccnc5)cc4-c4cn(C)nc4C(F)(F)F)C3=O)c2c1 [Compound B-154] , same question.
Solution: 10.66

Exercise: CCc1cc(C(=O)Nc2nccn2C)c2nccc(N3CCc4c(cc(Cn5ccnc5)cc4-c4cn(C)nc4C(F)(F)F)C3=O)c2c1 [Compound B-161] , same question.
Solution: 10.59

Exercise: COc1cc(C(=O)N(C)C)c2nccc(N3CCc4c(cc(Cn5ccnc5)cc4-c4cn(C)nc4C(F)(F)F)C3=O)c2c1 [Compound B-45] , same question.
Solution: 10.43

Exercise: COc1cc(N2CCN(C)CC2)c2nc(C)cc(N3CCc4c(cc(Cn5ccnc5)cc4-c4cn(C)nc4C(F)(F)F)C3=O)c2c1 [Compound B-102] , same question.
Solution: 10.60

----------
molecular target: WDR5 (Homo sapiens, UniProt P61964); construct: WDR5-His Tag (A23, residues 24-334) is expressed and purified in our lab; made in house; assay: Time Resolved-Fluorescence Energy Transfer (TR-FRET) competition assay, displacement of 10mer-Thr-FAM probe from His-tagged WDR5; assay type: binding; conditions: WDR5-His tag 2 nM, 10mer-Thr-FAM 150 nM, 60 minutes at room temperature; read-out: Ki for Exemplified Compounds for Inhibition of WDR5 by TR-FRET assay
ASSAY METRIC: Ki

Exercise: Fill in the blank: the reported Ki of COc1cc2ncnc(N3CCc4c(cc(Cn5ccnc5)cc4-c4cn(C)nc4C(F)(F)F)C3=O)c2cc1OC is ____.
Solution: < 20 pM

Exercise: CCc1cc2c(N3CCc4c(cc(Cn5ccnc5)cc4-c4cn(C)nc4C(F)(F)F)C3=O)ccnc2c(OCC(F)F)n1 , same question.
Solution: < 20 pM

Exercise: COc1cc2c(N3CCc4c(cc(Cn5ccnc5)cc4-c4cn(C)nc4C(F)(F)F)C3=O)ncnc2cc1O , same question.
Solution: 25 pM

Exercise: CCc1cc(OC)c2nncc(N3CCc4c(cc(Cn5ccnc5C)cc4-c4cn(C)nc4C(F)(F)F)C3=O)c2c1 , same question.
Solution: < 20 pM

Exercise: COc1cc2nccc(N3CCc4c(cc(Cn5ccnc5)cc4-c4cn(C)nc4C(F)(F)F)C3=O)c2cc1OC , same question.
Solution: < 20 pM

Exercise: CCc1cc(OC)c2nncc(N3CCc4c(cc(Cn5ccnc5)cc4-c4cn(C)nc4C(F)(F)F)C3=O)c2c1 , same question.
Solution: < 20 pM

Exercise: COc1cc2c(nc1C)CCCC2N1CCc2c(cc(Cn3ccnc3)cc2-c2cn(C)nc2C(F)(F)F)C1=O (stereo not shown) , same question.
Solution: < 20 pM

Exercise: CCc1cc(C(=O)NC)c2nccc(N3CCc4c(cc(Cn5ccnc5C)cc4-c4cn(C)nc4C(F)(F)F)C3=O)c2c1 , same question.
Solution: < 20 pM

Exercise: CCc1cc2c(N3CCc4c(cc(Cn5ccnc5)cc4-c4cn(C)nc4C(F)(F)F)C3=O)ccnc2c(N2CCOCC2)n1 , same question.
Solution: < 20 pM

Exercise: CCOc1nc(CC)cc2c(N3CCc4c(cc(Cn5ccnc5)cc4-c4cn(C)nc4C(F)(F)F)C3=O)ccnc12 , same question.
Solution: < 20 pM

Exercise: CCn1nc(C)cc1-c1cc(Cn2ccnc2)cc2c1CCN(c1nc(C)nc3cc(OC)c(OC)cc13)C2=O , same question.
Solution: 30 pM

Exercise: CCc1cc(OC)c2ncnc(N3CCc4c(cc(Cn5ccnc5)cc4-c4cn(C)nc4C(F)(F)F)C3=O)c2c1 , same question.
Solution: < 20 pM

Exercise: CCc1cc(OC)c2nc(C)nc(N3CCc4c(cc(Cn5ccnc5)cc4-c4cn(C)nc4C(F)(F)F)C3=O)c2c1 , same question.
Solution: 22 pM

The origin of these recorded values is patent US20240262822A1.
